target: recombinant human MAO-B (monoamine oxidase-B) (Homo sapiens, UniProt P27338); construct: purchased Sigma-Aldrich; assay: Activity on recombinant human MAO-B, method similar to the VAP-1 assay; format: biochemical; settings: substrate 1 mM benzylamine; read-out: Inhibitory Activity (IC50, nM) MAO-B
Sequence (P27338 whole entry): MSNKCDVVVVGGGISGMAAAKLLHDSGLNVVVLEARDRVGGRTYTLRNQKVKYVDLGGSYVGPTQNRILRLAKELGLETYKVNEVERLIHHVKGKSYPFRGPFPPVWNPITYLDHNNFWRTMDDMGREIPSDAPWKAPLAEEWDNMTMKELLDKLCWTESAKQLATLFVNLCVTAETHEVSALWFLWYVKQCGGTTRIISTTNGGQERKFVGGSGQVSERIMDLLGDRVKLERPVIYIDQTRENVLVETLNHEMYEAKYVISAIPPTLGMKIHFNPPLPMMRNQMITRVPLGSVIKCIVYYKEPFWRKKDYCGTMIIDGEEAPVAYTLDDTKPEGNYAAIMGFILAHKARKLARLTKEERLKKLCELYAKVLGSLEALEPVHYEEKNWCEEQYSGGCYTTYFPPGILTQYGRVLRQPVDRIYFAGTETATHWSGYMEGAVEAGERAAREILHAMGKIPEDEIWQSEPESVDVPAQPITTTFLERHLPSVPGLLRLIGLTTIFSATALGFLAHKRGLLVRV
Where a name gives a salt, the structure may show the parent alone.
IC50 reference

Molecule	Bound type	IC50 / nM
NC/C(=C\F)Cn1ncn(Cc2ccc(-c3ccc4c(c3Cl)NC(=O)CO4)s2)c1=O [Example 95, hydrochloride]	=	370
NC/C(=C\F)Cn1ncn(Cc2ccc(/C=C/c3ccc(C(F)(F)F)cc3)s2)c1=O [Example 119, hydrochloride]	=	1200
CC(C)(C)NS(=O)(=O)c1cncc(-c2ccc(Cn3cnn(C/C(=C/F)CN)c3=O)s2)c1 [Example 43, hydrochloride]	>	10000
CC(C)(C)NS(=O)(=O)c1cncc(-c2ccc(Cn3cnn(C/C(=C/F)CN)c3=O)s2)c1 [Example 186]	=	20000

The reported numbers originate from patent US11780830B2.
